The following binders are listed with their measured OD450 nm values.
- Target: T1, murine GPC3-his protein (murine, UniProt Q8CFZ4 25-558, limits assumed)
- T1 construct: Bought protein; also called mouse GPC3 protein; murine GPC3 protein; not shown: His tag
- T1 sequence (Q8CFZ4 25-558 limits assumed): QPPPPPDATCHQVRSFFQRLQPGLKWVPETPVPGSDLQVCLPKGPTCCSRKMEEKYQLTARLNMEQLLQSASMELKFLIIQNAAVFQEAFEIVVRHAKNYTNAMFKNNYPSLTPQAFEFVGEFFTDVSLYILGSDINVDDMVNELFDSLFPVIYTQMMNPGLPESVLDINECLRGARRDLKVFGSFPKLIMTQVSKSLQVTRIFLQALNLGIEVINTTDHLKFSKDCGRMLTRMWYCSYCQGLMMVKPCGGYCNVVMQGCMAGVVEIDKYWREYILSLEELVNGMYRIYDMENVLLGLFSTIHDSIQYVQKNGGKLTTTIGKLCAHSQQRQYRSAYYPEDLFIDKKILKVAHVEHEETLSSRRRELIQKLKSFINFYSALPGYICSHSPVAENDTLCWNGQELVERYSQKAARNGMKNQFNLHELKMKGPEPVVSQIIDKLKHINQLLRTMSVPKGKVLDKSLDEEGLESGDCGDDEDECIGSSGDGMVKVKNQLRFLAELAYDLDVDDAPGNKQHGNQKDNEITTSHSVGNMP
- Assay info: ELISA, murine GPC3-his coated; antibody 66.66 nM
Reply with just the number.

hAb001H2L1 (antibody, human IgG1, V domains shown, Humanized F2.169.2, H2+L1) VH: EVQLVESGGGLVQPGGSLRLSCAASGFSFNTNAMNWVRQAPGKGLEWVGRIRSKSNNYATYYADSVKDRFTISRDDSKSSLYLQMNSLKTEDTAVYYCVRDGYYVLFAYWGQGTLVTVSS VL: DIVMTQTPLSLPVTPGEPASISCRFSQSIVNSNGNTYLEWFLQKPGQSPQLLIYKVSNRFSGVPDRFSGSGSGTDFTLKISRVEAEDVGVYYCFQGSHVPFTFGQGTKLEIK | 2.62
hAb001H1aL1a (antibody, human IgG1, V domains shown, Humanized F2.169.2, H1a+L1a) VH: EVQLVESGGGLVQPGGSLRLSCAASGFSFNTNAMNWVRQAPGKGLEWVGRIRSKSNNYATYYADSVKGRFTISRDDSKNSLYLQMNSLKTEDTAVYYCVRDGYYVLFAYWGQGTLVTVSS VL: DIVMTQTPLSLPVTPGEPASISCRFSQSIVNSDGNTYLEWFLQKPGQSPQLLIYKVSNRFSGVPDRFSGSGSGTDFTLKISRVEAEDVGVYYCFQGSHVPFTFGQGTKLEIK | 2.45

Find the measured OD450 nm of hAb001H2L1b (antibody, human IgG1, V domains shown, Humanized F2.169.2, H2+L1b) VH: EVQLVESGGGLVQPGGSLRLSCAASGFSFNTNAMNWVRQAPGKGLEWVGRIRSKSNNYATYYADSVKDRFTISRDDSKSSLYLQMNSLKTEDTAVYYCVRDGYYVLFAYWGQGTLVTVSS VL: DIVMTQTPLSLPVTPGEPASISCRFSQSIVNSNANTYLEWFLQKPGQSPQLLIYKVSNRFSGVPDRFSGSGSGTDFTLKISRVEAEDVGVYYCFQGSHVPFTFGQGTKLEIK and report it. 2.64
